Data origin: patent US20220177508A1

# Test system: S. aureus MP-12
# Test summary: Broth dilution MIC determination (CLSI), S. aureus MP-12
# Assay type: cell-based
# Conditions: Staphylococcus aureus, MP12; strain MP-12, broth dilution
Measured MIC, listed per entry for reference.
Observed property: MIC

Compound: CO[C@]1(C)C[C@@H](C)CN(C)[C@H](C2CC3CCC(C2)N3C(=O)CN(C)C)COC(=O)C(C)(C)C(=O)[C@H](C)[C@H]1O[C@@H]1O[C@H](C)C[C@H](N(C)C)[C@H]1O (stereo partly drawn)
Assayed system: S. aureus MP-12
Test value: > 32 mg/L
//
Compound: CO[C@]1(C)C[C@@H](C)CN(C)[C@@H]([C@H]2CCNC2)COC(=O)C(C)(C)C(=O)[C@H](C)[C@H]1O[C@@H]1O[C@H](C)C[C@H](N(C)C)[C@H]1O
Assayed system: S. aureus MP-12
Test value: 4 to 32 mg/L
//
Compound: COCC(C)N1CC([C@@H]2COC(=O)C(C)(C)C(=O)[C@H](C)[C@@H](O[C@@H]3O[C@H](C)C[C@H](N(C)C)[C@H]3O)[C@](C)(OC)C[C@@H](C)CN2C)C1 (stereo partly drawn)
Assayed system: S. aureus MP-12
Test value: > 32 mg/L
